# System Under Test: mTor kinase (Homo sapiens (Human))
Items are presented alongside their recorded IC50.

{"columns": ["Compound", "IC50"],
 "data": [
  ["O=S(=O)(c1ccccc1)c1cc(-c2cnc(NCCO)nc2)cc(N2CCOCC2)c1", "16 µM"],
  ["Nc1ncc(-c2cc(N3CCOCC3)cc(S(=O)(=O)CC3CCOCC3)c2)cn1", "4.8 µM"],
  ["Nc1ncc(-c2cc(N3CCOCC3)cc(S(=O)(=O)Cc3ccc(F)cc3)c2)cn1", "10.9 µM"],
  ["Nc1cc(C(F)(F)F)c(-c2cc(N3CCOCC3)cc(S(=O)(=O)C3CCOC3)c2)cn1 (stereo not shown)", "7.61 µM"]
]}

====

# System Under Test: PI3Kα (Homo sapiens (Human), UniProt P42336)
# Sequence (P42336 whole entry): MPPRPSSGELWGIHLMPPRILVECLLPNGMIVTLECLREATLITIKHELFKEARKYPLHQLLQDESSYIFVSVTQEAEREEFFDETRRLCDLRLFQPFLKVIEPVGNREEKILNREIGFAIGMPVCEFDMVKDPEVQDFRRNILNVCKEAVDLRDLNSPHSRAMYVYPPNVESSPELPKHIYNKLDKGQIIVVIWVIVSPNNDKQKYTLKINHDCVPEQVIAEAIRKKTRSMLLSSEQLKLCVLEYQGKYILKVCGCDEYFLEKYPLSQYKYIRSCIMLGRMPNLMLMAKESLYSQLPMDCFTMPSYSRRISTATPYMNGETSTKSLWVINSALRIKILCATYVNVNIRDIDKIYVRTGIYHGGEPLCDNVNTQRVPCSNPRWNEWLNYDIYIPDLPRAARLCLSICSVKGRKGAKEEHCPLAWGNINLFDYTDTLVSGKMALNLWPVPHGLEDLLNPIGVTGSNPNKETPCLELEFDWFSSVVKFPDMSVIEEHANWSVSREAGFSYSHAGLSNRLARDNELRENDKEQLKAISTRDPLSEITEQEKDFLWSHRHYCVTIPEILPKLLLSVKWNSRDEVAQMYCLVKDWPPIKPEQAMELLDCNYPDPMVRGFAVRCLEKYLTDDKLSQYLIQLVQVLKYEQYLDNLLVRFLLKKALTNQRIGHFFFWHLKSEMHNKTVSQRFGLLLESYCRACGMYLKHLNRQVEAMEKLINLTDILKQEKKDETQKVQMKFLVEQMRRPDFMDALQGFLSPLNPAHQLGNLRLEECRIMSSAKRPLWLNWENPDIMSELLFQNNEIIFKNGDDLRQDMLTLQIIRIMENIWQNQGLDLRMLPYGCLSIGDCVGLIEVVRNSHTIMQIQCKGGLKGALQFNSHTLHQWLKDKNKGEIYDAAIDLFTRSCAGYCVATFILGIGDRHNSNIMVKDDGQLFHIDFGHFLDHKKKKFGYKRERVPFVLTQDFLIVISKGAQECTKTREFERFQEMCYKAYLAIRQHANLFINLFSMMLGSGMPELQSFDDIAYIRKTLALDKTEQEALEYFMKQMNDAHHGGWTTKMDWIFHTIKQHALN
# Sequence (P27986 whole entry partner): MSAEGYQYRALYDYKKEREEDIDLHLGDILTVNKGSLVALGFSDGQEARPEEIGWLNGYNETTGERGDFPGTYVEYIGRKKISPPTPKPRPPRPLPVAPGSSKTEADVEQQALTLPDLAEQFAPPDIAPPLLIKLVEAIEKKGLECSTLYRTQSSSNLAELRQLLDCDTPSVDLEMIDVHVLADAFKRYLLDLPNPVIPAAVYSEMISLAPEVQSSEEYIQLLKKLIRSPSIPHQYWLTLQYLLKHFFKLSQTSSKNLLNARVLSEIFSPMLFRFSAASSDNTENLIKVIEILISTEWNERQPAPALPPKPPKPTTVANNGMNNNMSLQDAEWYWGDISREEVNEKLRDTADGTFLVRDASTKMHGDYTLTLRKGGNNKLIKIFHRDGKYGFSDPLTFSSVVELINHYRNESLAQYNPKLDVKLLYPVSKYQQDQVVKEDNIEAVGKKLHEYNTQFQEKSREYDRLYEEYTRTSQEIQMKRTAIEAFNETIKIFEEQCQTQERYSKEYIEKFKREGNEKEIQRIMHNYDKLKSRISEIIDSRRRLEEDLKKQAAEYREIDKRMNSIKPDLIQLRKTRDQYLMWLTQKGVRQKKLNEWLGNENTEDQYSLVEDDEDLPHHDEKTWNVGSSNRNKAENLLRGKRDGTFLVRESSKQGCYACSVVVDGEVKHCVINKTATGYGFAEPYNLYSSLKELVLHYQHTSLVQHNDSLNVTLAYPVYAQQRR
# Run Description: Inhibition of PI3Kα (ADP-Glo kinase activity assay, ATP to ADP conversion)
# Type: biochemical
# Test Conditions: 25 μM PIP2:PS, 60 μM ATP, 30 min reaction, luminescence
Value Type: PI3Ka IC50 (µM)

{"columns": ["Compound", "Reported Value"],
 "data": [
  ["CNc1ncc(-c2cc(N3CCOCC3)cc(S(=O)(=O)Cc3ccccc3)c2)cn1 [Compound 31]", 0.66],
  ["Nc1cc(C(F)(F)F)c(-c2cc(N3CCOCC3)cc(S(=O)(=O)C3CCOC3)c2)cn1 (stereo not shown) [Compound 70]", 7.6],
  ["Nc1ccc(-c2cc(N3CCOCC3)cc(S(=O)(=O)Cc3ccc(F)cc3F)c2)nn1 [Compound 96]", 1.4],
  ["Nc1ncc(-c2cc(N3CCOCC3)cc(S(=O)(=O)C3CN(C(=O)Cc4ccc(F)cc4)C3)c2)cn1 [Compound 78]", 0.18]
]}

====

Items are presented alongside their recorded PI3Ka IC50.
# System Under Test: PI3Kα (Homo sapiens (Human))
# Run Description: Inhibition of PI3Kα (ADP-Glo kinase activity assay, ATP to ADP conversion)
# Assay type: biochemical
# Test Conditions: 25 μM PIP2:PS, 60 μM ATP, 30 min reaction, luminescence

{"columns": ["Compound", "PI3Ka IC50, nM"],
 "data": [
  ["Nc1ncc(-c2cc(C3CCOc4ccccc43)cc(N3CCOCC3)n2)cn1 (stereo not shown)", 62],
  ["Nc1ncc(-c2cc(N3CCOCC3)cc(S(=O)(=O)C3CNC3)c2)cn1", 500],
  ["Nc1ncc(-c2cc(Cc3ccccc3)cc(N3CCOCC3)n2)cn1", 120],
  ["Nc1cc(C(F)(F)F)c(-c2cc(N3CCOCC3)cc(S(=O)(=O)Cc3ccccc3)c2)cn1", 450]
]}

====

# System Under Test: PI3Kα (Homo sapiens (Human), UniProt P42336)
# Run Description: Inhibition of PI3Kα (ADP-Glo kinase activity assay, ATP to ADP conversion)
# Format: biochemical
# Test Conditions: 25 μM PIP2:PS, 60 μM ATP, 30 min reaction, luminescence
Entries are grouped by PI3Ka IC50 into these classes: low bin (below 300 nM), mid bin (300 nM to below 1000 nM), high bin (1000 nM or more)

{"columns": ["Molecule", "System Under Test", "Group"],
 "data": [
  ["Nc1ncc(-c2cc(N3CCOCC3)cc(S(=O)(=O)C3CCOC3)c2)cn1 (centres unmarked)", "PI3Kα (Homo sapiens (Human), UniProt P42336)", "low bin"],
  ["COc1cncc(-c2cc(N3CCOCC3)cc(S(=O)(=O)Cc3ccc(F)cc3)c2)c1", "PI3Kα (Homo sapiens (Human), UniProt P42336)", "high bin"],
  ["Nc1ncc(-c2cc(N3CCOCC3)cc(S(=O)(=O)C3CCOC3)c2)c(C(F)(F)F)n1 (centres unmarked)", "PI3Kα (Homo sapiens (Human), UniProt P42336)", "mid bin"],
  ["Nc1ncc(-c2cc(S(=O)(=O)C3CCOCC3)cc(N3CCOCC3)n2)cn1", "PI3Kα (Homo sapiens (Human), UniProt P42336)", "low bin"],
  ["Nc1ncc(-c2cc(N3CCCc4ccccc43)cc(N3CCOCC3)n2)cn1", "PI3Kα (Homo sapiens (Human), UniProt P42336)", "low bin"],
  ["Nc1ncc(-c2cc(N3CCOCC3)cc(S(=O)(=O)CC3CCCCC3)c2)cn1", "PI3Kα (Homo sapiens (Human), UniProt P42336)", "mid bin"],
  ["CC(=O)Nc1ccc(S(=O)(=O)c2cc(-c3cnc(N)nc3)cc(N3CCOCC3)c2)cc1", "PI3Kα (Homo sapiens (Human), UniProt P42336)", "high bin"],
  ["CC(C)N1CCC(S(=O)(=O)c2cc(-c3cnc(N)nc3)cc(N3CCOCC3)c2)CC1", "PI3Kα (Homo sapiens (Human), UniProt P42336)", "high bin"],
  ["Nc1ncc(-c2cc(N3CCOCC3)cc(S(=O)(=O)c3ccc(C(F)(F)F)cc3)c2)cn1", "PI3Kα (Homo sapiens (Human), UniProt P42336)", "high bin"],
  ["Nc1ncc(-c2cc(N3CCOCC3)cc(S(=O)(=O)c3ccc(F)c(Cl)c3)c2)cn1", "PI3Kα (Homo sapiens (Human), UniProt P42336)", "high bin"],
  ["Nc1ncc(-c2cc(OC3CCOC3)cc(N3CCOCC3)n2)cn1 (centres unmarked)", "PI3Kα (Homo sapiens (Human), UniProt P42336)", "low bin"],
  ["Nc1ncc(-c2cc(N3CCOCC3)cc(S(=O)(=O)/C=C/c3ccccc3O)c2)cn1", "PI3Kα (Homo sapiens (Human), UniProt P42336)", "high bin"],
  ["Nc1ncc(-c2cc(N3CCOCC3)cc(S(=O)(=O)CCc3ccc(F)cc3)c2)cn1", "PI3Kα (Homo sapiens (Human), UniProt P42336)", "low bin"],
  ["Nc1ncc(-c2cc(N3CCOCC3)cc(S(=O)(=O)C3CCCCC3)c2)cn1", "PI3Kα (Homo sapiens (Human), UniProt P42336)", "mid bin"],
  ["COCNC(=O)N1CC(S(=O)(=O)c2cc(-c3cnc(N)nc3)cc(N3CCOCC3)c2)C1", "PI3Kα (Homo sapiens (Human), UniProt P42336)", "low bin"],
  ["Nc1ncc(-c2cc(N3CCOCC3)cc(S(=O)(=O)C3CCC(F)(F)CC3)c2)cn1", "PI3Kα (Homo sapiens (Human), UniProt P42336)", "mid bin"]
]}

====

# System Under Test: PI3Kα (Homo sapiens (Human))
# Run Description: Inhibition of PI3Kα (ADP-Glo kinase activity assay, ATP to ADP conversion)
# Assay type: biochemical
# Test Conditions: 25 μM PIP2:PS, 60 μM ATP, 30 min reaction, luminescence

{"columns": ["Compound", "System Under Test", "Result Units", "PI3Ka IC50"],
 "data": [
  ["Nc1ncc(-c2cc(N3CCOCC3)cc(S(=O)(=O)c3ccc4ccccc4c3)c2)cn1", "PI3Kα (Homo sapiens (Human))", "µM", 1.5],
  ["Nc1ncc(-c2cc(N3CCOCC3)cc(S(=O)(=O)C3CN(C4CCOCC4)C3)c2)cn1", "PI3Kα (Homo sapiens (Human))", "µM", 1.3],
  ["Nc1ncc(-c2cc(S(=O)(=O)c3ccccc3)cc(N3CCOCC3)n2)cn1", "PI3Kα (Homo sapiens (Human))", "µM", 0.066],
  ["Nc1ncc(-c2cc(N3CCOCC3)cc(S(=O)(=O)[C@@H]3CCOC3)c2)cc1C(F)(F)F", "PI3Kα (Homo sapiens (Human))", "µM", 1.6],
  ["Nc1ncc(-c2cc(N3CCOCC3)cc(S(=O)(=O)C3COc4ccccc43)c2)cn1 (centres unmarked)", "PI3Kα (Homo sapiens (Human))", "µM", 0.11],
  ["Nc1ncc(-c2cc(N3CCOCC3)cc(S(=O)(=O)C3CCOCC3)c2)cn1", "PI3Kα (Homo sapiens (Human))", "µM", 0.33],
  ["CC(C)N1CC(S(=O)(=O)c2cc(-c3cnc(N)nc3)cc(N3CCOCC3)c2)C1", "PI3Kα (Homo sapiens (Human))", "µM", 0.87],
  ["CN(C)c1ncc(-c2cc(N3CCOCC3)cc(S(=O)(=O)c3ccccc3)c2)cn1", "PI3Kα (Homo sapiens (Human))", "µM", 11]
]}

====

# System Under Test: PI3Kα (Homo sapiens (Human), UniProt P42336)
# Run Description: Inhibition of PI3Kα (ADP-Glo kinase activity assay, ATP to ADP conversion)
# Type: biochemical
# Test Conditions: 25 μM PIP2:PS, 60 μM ATP, 30 min reaction, luminescence
Items are presented alongside their recorded PI3Ka IC50.
Value Type: PI3Ka IC50 (µM)

{"columns": ["Compound", "System Under Test", "Value Type", "Reported Value"],
 "data": [
  ["Nc1ncc(-c2cc(N3CCOCC3)cc(S(=O)(=O)[C@@H]3CCOC3)c2)cn1 [Compound 52]", "PI3Kα (Homo sapiens (Human), UniProt P42336)", "PI3Ka IC50", 0.13],
  ["Nc1ncc(-c2cc(N3CCOCC3)cc(S(=O)(=O)C3CN(C(=O)c4ccc(F)cc4)C3)c2)cn1 [Compound 79]", "PI3Kα (Homo sapiens (Human), UniProt P42336)", "PI3Ka IC50", 0.21],
  ["CC(C)(O)CNc1ccc(S(=O)(=O)c2cc(-c3cnc(N)nc3)cc(N3CCOCC3)c2)cc1 [Compound 37]", "PI3Kα (Homo sapiens (Human), UniProt P42336)", "PI3Ka IC50", 2.0],
  ["Nc1ncc(-c2cc(N3CCOCC3)cc(S(=O)(=O)CC3CCOCC3)c2)cn1 [Compound 39]", "PI3Kα (Homo sapiens (Human), UniProt P42336)", "PI3Ka IC50", 0.79],
  ["Nc1ncc(-c2cc(N3CCOCC3)cc(S(=O)(=O)Cc3ccc4[nH]cnc4c3)c2)cn1 [Compound 63]", "PI3Kα (Homo sapiens (Human), UniProt P42336)", "PI3Ka IC50", 0.47],
  ["CC(C)(C)OC(=O)N1CC(S(=O)(=O)c2cc(-c3cnc(N)cn3)cc(N3CCOCC3)c2)C1 [Compound 69]", "PI3Kα (Homo sapiens (Human), UniProt P42336)", "PI3Ka IC50", 0.54],
  ["Nc1ncc(-c2cc(N3CCOCC3)cc(S(=O)(=O)Cc3ccccc3F)c2)cn1 [Compound 50]", "PI3Kα (Homo sapiens (Human), UniProt P42336)", "PI3Ka IC50", 0.28],
  ["Nc1ncc(-c2cc(N3CCOCC3)cc(S(=O)(=O)Cc3ccccc3)c2)cn1 [Compound 23]", "PI3Kα (Homo sapiens (Human), UniProt P42336)", "PI3Ka IC50", 0.10]
]}

The reported numbers originate from patent US11492348B2.
